The measured values listed here are drawn from ChEMBL document CHEMBL3991601.

Entries with reported Kd on Tyrosine-protein kinase HCK (Homo sapiens)
Sequence (P08631 whole entry): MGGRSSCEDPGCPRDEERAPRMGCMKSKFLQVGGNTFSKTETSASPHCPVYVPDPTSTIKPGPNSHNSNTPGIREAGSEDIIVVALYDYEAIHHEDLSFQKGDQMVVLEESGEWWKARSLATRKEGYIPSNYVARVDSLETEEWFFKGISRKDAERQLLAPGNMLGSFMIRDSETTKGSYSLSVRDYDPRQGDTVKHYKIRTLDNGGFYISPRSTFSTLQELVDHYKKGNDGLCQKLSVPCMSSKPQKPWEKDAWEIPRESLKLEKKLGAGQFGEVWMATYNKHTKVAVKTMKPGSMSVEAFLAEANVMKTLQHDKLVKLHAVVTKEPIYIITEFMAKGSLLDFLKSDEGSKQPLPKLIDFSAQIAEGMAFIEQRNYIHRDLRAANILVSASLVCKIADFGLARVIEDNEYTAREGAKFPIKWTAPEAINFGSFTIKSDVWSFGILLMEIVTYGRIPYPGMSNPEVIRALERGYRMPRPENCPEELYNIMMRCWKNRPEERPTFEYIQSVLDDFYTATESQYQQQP
Calls of active or inactive are those of the source.
PROPERTY MEASURED: Kd

{"STRUCTURE STRING": "C=CC(=O)N1CCC[C@H](n2c(=O)n(-c3ccc(Oc4ccccc4)cc3)c3c(N)ncnc32)C1", "SUBJECT OF TEST": "Tyrosine-protein kinase HCK (Homo sapiens)", "PROPERTY MEASURED": "Kd", "RECORDED RESULT": "0.006 µM"}
{"STRUCTURE STRING": "CCCCCCCCCCCCCCCCCCOP(=O)([O-])OC1CC[N+](C)(C)CC1", "SUBJECT OF TEST": "Tyrosine-protein kinase HCK (Homo sapiens)", "PROPERTY MEASURED": "Kd", "RECORDED RESULT": "> 30 µM (inactive)"}
{"STRUCTURE STRING": "CN1CCN(CCOc2cc(OC3CCOCC3)c3c(Nc4c(Cl)ccc5c4OCO5)ncnc3c2)CC1", "SUBJECT OF TEST": "Tyrosine-protein kinase HCK (Homo sapiens)", "PROPERTY MEASURED": "Kd", "RECORDED RESULT": "0.1 µM (active)"}
{"STRUCTURE STRING": "CO[C@H]1C[C@@H]2CC[C@@H](C)[C@@](O)(O2)C(=O)C(=O)N2CCCC[C@H]2C(=O)O[C@H]([C@H](C)C[C@@H]2CC[C@@H](OC(=O)C(C)(CO)CO)[C@H](OC)C2)CC(=O)[C@H](C)/C=C(\\C)[C@@H](O)[C@@H](OC)C(=O)[C@H](C)C[C@H](C)/C=C/C=C/C=C/1C", "SUBJECT OF TEST": "Tyrosine-protein kinase HCK (Homo sapiens)", "PROPERTY MEASURED": "Kd", "RECORDED RESULT": "> 30 µM (inactive)"}
{"STRUCTURE STRING": "COc1ncc(-c2ccc3nccc(-c4ccnnc4)c3c2)cc1NS(=O)(=O)c1ccc(F)cc1F", "SUBJECT OF TEST": "Tyrosine-protein kinase HCK (Homo sapiens)", "PROPERTY MEASURED": "Kd", "RECORDED RESULT": "> 30 µM (inactive)"}
{"STRUCTURE STRING": "CC(=O)c1cnc2ccc(-c3cc(Cl)c(O)c(Cl)c3)nc2c1N[C@H]1CC[C@H](CN(C)C)CC1", "SUBJECT OF TEST": "Tyrosine-protein kinase HCK (Homo sapiens)", "PROPERTY MEASURED": "Kd", "RECORDED RESULT": "0.116 µM (active)"}
{"STRUCTURE STRING": "Cc1nc2cc(-n3ncc(C(=O)c4cc5ccccc5[nH]4)c3N)ccc2[nH]1", "SUBJECT OF TEST": "Tyrosine-protein kinase HCK (Homo sapiens)", "PROPERTY MEASURED": "Kd", "RECORDED RESULT": "> 30 µM (inactive)"}
{"STRUCTURE STRING": "O=C(Cc1ccc(-c2ccc(OCCN3CCOCC3)cc2)cn1)NCc1ccccc1", "SUBJECT OF TEST": "Tyrosine-protein kinase HCK (Homo sapiens)", "PROPERTY MEASURED": "Kd", "RECORDED RESULT": "> 30 µM (inactive)"}
{"STRUCTURE STRING": "CCNC(=O)C#Cc1ccc2c(c1)NC(=O)/C2=C(\\Nc1ccc(CN(C)C)cc1)c1ccccc1", "SUBJECT OF TEST": "Tyrosine-protein kinase HCK (Homo sapiens)", "PROPERTY MEASURED": "Kd", "RECORDED RESULT": "0.9 µM (active)"}
{"STRUCTURE STRING": "Cn1cnc2c(F)c(Nc3ccc(Br)cc3F)c(C(=O)NOCCO)cc21", "SUBJECT OF TEST": "Tyrosine-protein kinase HCK (Homo sapiens)", "PROPERTY MEASURED": "Kd", "RECORDED RESULT": "> 30 µM (inactive)"}
{"STRUCTURE STRING": "C[C@@H](NC(=O)c1ncnc(N)c1Cl)c1ncc(C(=O)Nc2cc(C(F)(F)F)c(Cl)cn2)s1", "SUBJECT OF TEST": "Tyrosine-protein kinase HCK (Homo sapiens)", "PROPERTY MEASURED": "Kd", "RECORDED RESULT": "> 30 µM (inactive)"}
{"STRUCTURE STRING": "CCn1c(C(=O)N(C2CC2)C2CC2)cc2c3c(ncn3C)c(Nc3cc(C)n(C)n3)nc21", "SUBJECT OF TEST": "Tyrosine-protein kinase HCK (Homo sapiens)", "PROPERTY MEASURED": "Kd", "RECORDED RESULT": "> 30 µM (inactive)"}
{"STRUCTURE STRING": "NC(=O)c1c(OCc2c(F)cc(Br)cc2F)nsc1NC(=O)NCCCCN1CCCC1", "SUBJECT OF TEST": "Tyrosine-protein kinase HCK (Homo sapiens)", "PROPERTY MEASURED": "Kd", "RECORDED RESULT": "> 30 µM (inactive)"}
{"STRUCTURE STRING": "Nc1ncnc2c1c(-c1cccc(OCc3ccccc3)c1)cn2[C@H]1C[C@@H](CN2CCC2)C1", "SUBJECT OF TEST": "Tyrosine-protein kinase HCK (Homo sapiens)", "PROPERTY MEASURED": "Kd", "RECORDED RESULT": "0.623 µM (active)"}
{"STRUCTURE STRING": "N#CC1(c2ccc(NC(=O)c3cccnc3NCc3ccncc3)cc2)CCCC1", "SUBJECT OF TEST": "Tyrosine-protein kinase HCK (Homo sapiens)", "PROPERTY MEASURED": "Kd", "RECORDED RESULT": "> 30 µM (inactive)"}
{"STRUCTURE STRING": "O=C(Nc1nc2cccc(-c3ccc(CN4CCS(=O)(=O)CC4)cc3)n2n1)C1CC1", "SUBJECT OF TEST": "Tyrosine-protein kinase HCK (Homo sapiens)", "PROPERTY MEASURED": "Kd", "RECORDED RESULT": "> 30 µM (inactive)"}
